Measured values drawn from patent US20120231006A1 for this set.

molecular target: human Orai1 (human, UniProt Q96D31 1-301); assay: cell-based or functional assay
Sequence (Q96D31 whole entry): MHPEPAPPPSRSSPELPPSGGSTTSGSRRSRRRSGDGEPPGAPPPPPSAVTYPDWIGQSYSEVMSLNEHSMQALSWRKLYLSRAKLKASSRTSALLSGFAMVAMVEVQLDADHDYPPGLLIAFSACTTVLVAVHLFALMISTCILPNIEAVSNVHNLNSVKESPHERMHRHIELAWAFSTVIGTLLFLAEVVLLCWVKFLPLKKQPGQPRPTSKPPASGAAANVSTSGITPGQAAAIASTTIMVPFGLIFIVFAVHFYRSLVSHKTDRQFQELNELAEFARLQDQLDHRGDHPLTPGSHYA
# IC50 IFN-γ, whole blood Donor B, recombinant mAb per entry
Quantity: IC50 IFN-γ, whole blood Donor B, recombinant mAb (nM)

Binder	Result value
mAb 5H3.1 (antibody, human IgG2, lambda, V domains shown, fully human IgG2 lambda, Campaign 2, recombinant) VH: QVQLVQSGAEVKKPGASVKVSCKASGYTFTDYYMNWVRQAPGQGLEWMGWINPNSGGTKYAQKFQGRVTMTRDTSIRTAYMELSRLRSDDTAVYYCAREYGGNSDWFDPWGQGTLVTVSS VL: QSVLTQPPSVSGAPGQRVTISCTGSSSNIGAGYDVHWYQQLPGTAPKLLIYGNSNRPSGVPDRFSGSKSGTSASLAITGLQAEDEADYYCQSYDNRLSDSVVIGGGTKLAVQG	2.55
mAb 5F2.1 (antibody, human IgG2, lambda, V domains shown, fully human IgG2 lambda, Campaign 2) VH: QVQLVQSGAEVKKPGASVKVSCKASGYTFTDYYMNWVRQAPGQGLEWMGWINPNSGGTHYAQKFQGRVTMTRDTSISTAYMELSRLRSDDTAVYYCAREYGGYSDWFDPWGQGTLVTVSS VL: QSVLTQPPSVSGAPGQRVTISCTGSRSNIGAGYDVHWYQQLPRTAPKLLIYDNSNRPSGVPDRFSGSKSGSSASLAITGLQAEDEADYYCQSYDNSLSDSVLIGGGTKLTVLG	9.84
mAb 5B5.1 (antibody, human IgG2, lambda, V domains shown, fully human IgG2 lambda, Campaign 2, recombinant; same chains as 5B5.2) VH: QVQLVQSGAEVKKPGASVKVSCKASGYTFTDYYINWVRQAPGQGLEWMGWINPNSGGTDYAQKFQGRVTMTRDTSIRTAYMELNRLTSDDTAVYYCAREYGGYEDWFDPWGQGTLVTVSS VL: QSVLTQPPSVSGAPGQRVTISCTGSNSNIGAGFDVHWYQQLPGTVPKLLIYGNNNRPSGVPDRFSGSKSGTSASLAITGLQAEDEADYYCQSYDSRLTVFGGGTKLTVLG	42.9
mAb 5A4.2 (antibody, human IgG2, lambda, V domains shown, fully human IgG2 lambda, Campaign 2) VH: QVQLVQSGAEVKKPGASVKVSCKASGYTFTDYYMNWVRQAPGQGLEWMGWINPNSGGTKYAQKFQGRVTMTRDTSIRTAYMELSRLRSDDTAVYYCSREYGGNSDWFDPWGQGTLVTVSS VL: QSVLTQPPSVSGAPGQRVTISCTGSSSNIGAGYDVHWYQQLPGTAPKLLIYGNSNRPSGVPDRFSGSKSGTSASLAITGLQAEDEADYYCQSYDNRLSDSVVIGGGTKLTVQG	3.59
